Target: Ectonucleotide pyrophosphatase/phosphodiesterase family member 3 (Homo sapiens, UniProt O14638)
Sequence (O14638 whole entry): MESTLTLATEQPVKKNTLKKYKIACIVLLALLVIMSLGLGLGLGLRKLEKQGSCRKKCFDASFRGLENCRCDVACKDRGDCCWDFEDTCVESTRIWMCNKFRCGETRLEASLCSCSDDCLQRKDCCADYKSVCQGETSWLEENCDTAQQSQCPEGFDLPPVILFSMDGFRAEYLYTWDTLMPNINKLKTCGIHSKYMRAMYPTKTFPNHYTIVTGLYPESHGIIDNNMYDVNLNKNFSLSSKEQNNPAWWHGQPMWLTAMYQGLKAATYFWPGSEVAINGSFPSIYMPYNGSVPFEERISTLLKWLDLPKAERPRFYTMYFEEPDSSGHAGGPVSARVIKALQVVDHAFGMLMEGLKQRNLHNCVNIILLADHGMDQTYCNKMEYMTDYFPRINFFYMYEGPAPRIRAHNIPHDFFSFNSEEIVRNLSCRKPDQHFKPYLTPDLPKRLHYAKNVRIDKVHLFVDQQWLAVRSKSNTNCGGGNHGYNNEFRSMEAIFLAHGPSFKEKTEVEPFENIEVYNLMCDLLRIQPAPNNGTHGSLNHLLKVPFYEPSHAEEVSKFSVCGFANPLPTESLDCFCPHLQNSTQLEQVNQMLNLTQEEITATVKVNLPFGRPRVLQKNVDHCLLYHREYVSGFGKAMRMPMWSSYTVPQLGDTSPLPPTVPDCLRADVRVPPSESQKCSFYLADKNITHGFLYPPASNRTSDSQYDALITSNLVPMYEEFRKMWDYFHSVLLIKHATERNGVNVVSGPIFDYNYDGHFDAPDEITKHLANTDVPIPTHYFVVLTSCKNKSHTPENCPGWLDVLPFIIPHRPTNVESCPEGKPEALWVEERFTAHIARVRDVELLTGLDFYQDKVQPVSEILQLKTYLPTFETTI
Experiment: Inhibition of human NPP3 expressed in COS-7 cell membranes assessed as reduction in p-nitrophenol production using pNP-TMP as substrate preincubated with enzyme for 15 mins followed by substrate addition and measured after 35 mins
quantity-measured: IC50 (nM)
Answers are plain numbers, in nM.

{"query-smiles": "COc1ccc(S(=O)(=O)Oc2ccc(-c3sc4cc(OS(=O)(=O)c5ccc(OC)cc5)ccc4c3C(=O)c3ccc(OCCN4CCCCC4)cc3)cc2)cc1", "reported-value": 1240}

Please give IC50, item by item, for the list that follows.
1. CC(C)(C)c1ccc(S(=O)(=O)Oc2ccc(-c3sc4cc(OS(=O)(=O)c5ccc(C(C)(C)C)cc5)ccc4c3C(=O)c3ccc(OCCN4CCCCC4)cc3)cc2)cc1
2. CNS(=O)(=O)Oc1ccc(-c2sc3cc(OS(=O)(=O)NC)ccc3c2C(=O)c2ccc(OCCN3CCCCC3)cc2)cc1
3. CCS(=O)(=O)Oc1ccc(-c2sc3cc(OS(=O)(=O)CC)ccc3c2C(=O)c2ccc(OCCN3CCCCC3)cc2)cc1
4. O=C(c1ccc(OCCN2CCCCC2)cc1)c1c(-c2ccc(OS(=O)(=O)C3CCCCC3)cc2)sc2cc(OS(=O)(=O)C3CCCCC3)ccc12
5. O=C(c1ccc(OCCN2CCCCC2)cc1)c1c(-c2ccc(OS(=O)(=O)c3ccc(C(F)(F)F)cc3)cc2)sc2cc(OS(=O)(=O)c3ccc(C(F)(F)F)cc3)ccc12
6. O=C(c1ccc(OCCN2CCCCC2)cc1)c1c(-c2ccc(OS(=O)(=O)c3ccc(F)cc3)cc2)sc2cc(OS(=O)(=O)c3ccc(F)cc3)ccc12

1. 710
2. 1550
3. 1510
4. 490
5. 230
6. 1810

###

Molecular target: Ectonucleotide pyrophosphatase/phosphodiesterase family member 1 (Homo sapiens) (UniProt P22413)
Sequence (P22413 whole entry): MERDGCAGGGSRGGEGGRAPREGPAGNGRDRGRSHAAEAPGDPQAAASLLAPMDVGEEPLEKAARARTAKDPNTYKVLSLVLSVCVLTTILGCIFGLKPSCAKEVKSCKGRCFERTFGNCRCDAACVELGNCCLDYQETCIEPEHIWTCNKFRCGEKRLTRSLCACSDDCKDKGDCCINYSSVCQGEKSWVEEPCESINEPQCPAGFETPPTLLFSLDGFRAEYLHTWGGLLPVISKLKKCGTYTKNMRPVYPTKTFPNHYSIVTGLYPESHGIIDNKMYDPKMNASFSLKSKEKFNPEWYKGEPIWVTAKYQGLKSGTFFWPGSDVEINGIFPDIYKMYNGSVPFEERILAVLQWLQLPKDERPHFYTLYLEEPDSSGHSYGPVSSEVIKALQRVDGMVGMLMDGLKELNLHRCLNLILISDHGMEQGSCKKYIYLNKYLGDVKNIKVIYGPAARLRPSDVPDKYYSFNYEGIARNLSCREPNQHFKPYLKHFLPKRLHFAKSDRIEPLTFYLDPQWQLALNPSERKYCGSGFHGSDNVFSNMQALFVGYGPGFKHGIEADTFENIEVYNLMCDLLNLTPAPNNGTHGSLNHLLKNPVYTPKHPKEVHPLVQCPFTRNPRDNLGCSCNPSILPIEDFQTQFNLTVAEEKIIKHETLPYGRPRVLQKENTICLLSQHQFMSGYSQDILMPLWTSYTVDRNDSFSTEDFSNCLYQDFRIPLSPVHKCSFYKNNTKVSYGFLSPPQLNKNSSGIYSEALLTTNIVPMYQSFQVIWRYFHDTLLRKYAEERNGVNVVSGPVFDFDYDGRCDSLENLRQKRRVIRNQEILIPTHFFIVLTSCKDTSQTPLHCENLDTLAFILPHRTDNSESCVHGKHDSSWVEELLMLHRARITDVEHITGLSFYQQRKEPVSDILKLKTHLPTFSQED
Test: Inhibition of human NPP1 expressed in COS-7 cell membranes assessed as reduction in p-nitrophenol production at 100 uM using pNP-TMP as substrate preincubated with enzyme for 15 mins followed by substrate addition and measured after 35 mins relative to control
quantity-measured: inhibition (%)
Numbers only, in %.

Reference set (3 entries):
{"query-smiles": "CCS(=O)(=O)Oc1ccc(-c2sc3cc(OS(=O)(=O)CC)ccc3c2C(=O)c2ccc(OCCN3CCCCC3)cc2)cc1", "reported-value": 35.1}
{"query-smiles": "O=C(c1ccc(OCCN2CCCCC2)cc1)c1c(-c2ccc(OS(=O)(=O)C3CCCCC3)cc2)sc2cc(OS(=O)(=O)C3CCCCC3)ccc12", "reported-value": 30}
{"query-smiles": "CNS(=O)(=O)Oc1ccc(-c2sc3cc(OS(=O)(=O)NC)ccc3c2C(=O)c2ccc(OCCN3CCCCC3)cc2)cc1", "reported-value": 36}

For the molecule O=C(c1ccc(OCCN2CCCCC2)cc1)c1c(-c2ccc(OS(=O)(=O)c3cccc4cccnc34)cc2)sc2cc(OS(=O)(=O)c3cccc4cccnc34)ccc12 , what inhibition is on record?
28.7

###

Tested on: HT-29
Assay: Antiproliferative activity against human HT-29 cells assessed as reduction in cell viability after 48 hrs by MTT assay
Type: functional, cell-based
Conditions: HT-29, 48 h
Can you tell me IC50 for the items I'm about to list?
One number for each entry, in nM.

Reference set (3 entries):
{"query-smiles": "CC(C)(C)c1ccc(S(=O)(=O)Oc2ccc(-c3sc4cc(OS(=O)(=O)c5ccc(C(C)(C)C)cc5)ccc4c3C(=O)c3ccc(OCCN4CCCCC4)cc3)cc2)cc1", "quantity-measured": "IC50", "result-units": "nM", "reported-value": 1400}
{"query-smiles": "CN(C)S(=O)(=O)Oc1ccc(-c2sc3cc(OS(=O)(=O)N(C)C)ccc3c2C(=O)c2ccc(OCCN3CCCCC3)cc2)cc1", "quantity-measured": "IC50", "result-units": "nM", "reported-value": 1500}
{"query-smiles": "O=C(c1ccc(OCCN2CCCCC2)cc1)c1c(-c2ccc(OS(=O)(=O)c3ccc(C(F)(F)F)cc3)cc2)sc2cc(OS(=O)(=O)c3ccc(C(F)(F)F)cc3)ccc12", "quantity-measured": "IC50", "result-units": "nM", "reported-value": 4000}

# context switch: different compound, same IC50
For the compound CNS(=O)(=O)Oc1ccc(-c2sc3cc(OS(=O)(=O)NC)ccc3c2C(=O)c2ccc(OCCN3CCCCC3)cc2)cc1 , what IC50 is on record?
1700
